Here, each record is paired with measured TGI data.
# Test system: A549 NSCLC
# Assay Protocol: NCI tumour cell line growth inhibition, 48 h

# example entries with known answers
INSERT INTO measurements (compound, subject_of_test, value_observed) VALUES
  ('O=C1CSc2sc(=S)sc2S1', 'A549 NSCLC', '> 100 µM'),
  ('COC(=O)[C@H]1CC(=O)C=C2CCCC21 (stereo partly drawn)', 'A549 NSCLC', '> 100 µM');

Continue with the next compound.
GET /values?readout=TGI&item= COc1cccc(C(C#N)NC23CC4CC(CC(C4)C2)C3)c1 (stereo not drawn)
> 100 µM

* * *

# System: MCF7 breast
# Assay Protocol: NCI tumour cell line growth inhibition, 48 h
Measured Endpoint: TGI

INSERT INTO results (molecule, subject_of_test, value_observed) VALUES
  ('COc1ccc(N2C(=O)C(C#N)=C(SC)C(C#N)C2=O)cc1 (centres undefined)', 'MCF7 breast', '> 100 µM'),
  ('COc1ccc(/C=C/c2ccnc3ccccc23)cc1', 'MCF7 breast', '31.4 µM');

I am curious: what TGI value has been reported for `N#Cc1ccc(N2Cc3cc(Cl)ccc3OC3=C2C(=O)N(Cc2ccc(F)cc2)C3=O)cc1` ?
3.03 µM

Field request: TGI | item: CC(=O)C1=C(C)N(c2ccc(C)cc2)C2(O)C=CC(=O)C3=C(O)c4ccccc4C(=O)C312 (centres undefined)
> 100 µM

Please give the measured TGI for this molecule: COC1=CCC2=C(CCN(C(=O)C3CC3)C2Cc2ccc(OC)c(O)c2)C1 (centres undefined)
> 100 µM

Data request, read-out TGI, for `c1csc(-c2sc(-c3ccsc3)cc2Cc2ccsc2)c1`
> 10 µM

Please report the recorded TGI for `CCN1CCN(CC(=O)Nc2nc3ccc(NCc4ccc(C)cc4)cc3s2)CC1` .
8.41 µM

Reported TGI, molecule `O=C1NC(=O)/C(=C/c2ccc(S(=O)(=O)N/N=C/c3ccccc3)cc2)N1` : ____
> 100 µM

* * *

# maps each entry to its TGI
# Tested on: MDA-N
# Assay Protocol: NCI tumour cell line growth inhibition, 48 h

INSERT INTO results (compound, value_observed) VALUES
  ('NC(CCC(=O)NC(CSC(=O)N(O)c1ccc(Cl)cc1)C(=O)NCC(=O)O)C(=O)O (centres undefined)', '> 0.5 µM'),
  ('NC(Cn1ccc(=O)c(O)c1)C(=O)O (centres undefined)', '> 100 µM'),
  ('COc1ccc(N2C(=O)C(C#N)=C(SC)C(C#N)C2=O)cc1 (centres undefined)', '> 100 µM');

API: value(readout= TGI, system= MDA-N, query= O=S(=O)(CC(O)C(Cl)(Cl)Cl)NNc1ccccc1 (centres undefined) )
> 100 µM

* * *

# Test system: CAKI-1 renal
# Assay Protocol: NCI tumour cell line growth inhibition, 48 h
TGI values by entry

Worked set:
INSERT INTO measurements (compound, value_observed) VALUES
  ('Cc1ccc(C)c(NC(=O)/C(=N\N)C(c2cnc3ccc([N+](=O)[O-])cc3n2)[N+](=O)[O-])c1 (stereo unspecified)', '> 100 µM'),
  ('CC1(C)C(=O)CCC(=O)C(C)(C)C2=CC=C(O2)C(C)(C)C(=O)CCC(=O)C(C)(C)C2=CC=C1O2', '> 100 µM'),
  ('Nc1nc2c(c(=O)[nH]1)N=C(COP(=O)(O)OP(=O)(O)O)CN2', '> 100 µM'),
  ('[O-]/N=N\c1on[n+](CCc2ccccc2)c1Cc1c(/N=N/[O-])on[n+]1CCc1ccccc1', '> 100 µM'),
  ('N#Cc1nc(-c2ccccc2O)oc1N', '> 100 µM');

Please turn your attention to the following entry.
Which TGI value is on record for `COc1ccc(/C=c2\sc3nnc(CCC(=O)Nc4cccc(C(F)(F)F)c4)n3c2=O)cc1` ?
> 100 µM

Origin of values: PubChem BioAssay (NCI)
